The measured values listed here are drawn from PubChem BioAssay (NCI).

Task for the reader: assign each of the following molecules its reported TGI.
# Test system: COLO 205 colon
# Protocol Notes: NCI tumour cell line growth inhibition, 48 h

CC(=O)NC1C(OCc2ccccc2)OC(CO)C(O)C1OC(C)C(=O)NC(C(=O)NC(CCC(=O)Nc1ccc2c(c1)CN1C(=O)c3ccccc3C1=N2)C(N)=O)C(C)C (stereo not drawn) | > 100 µM
Cn1c(=O)c2c(nc3n2C(CCl)CO3)n(C)c1=O (stereo not drawn) | > 100 µM

Consider the record given below.
**Q:** Param item = CC(=O)Nc1ccc2c(c1)C(=Nc1ccc(C(=O)O)cc1)c1ccccc1-2 ; retrieve measured TGI.
**A:** > 100 µM

###

# System: HOP-92 NSCLC
# Protocol Notes: NCI tumour cell line growth inhibition, 48 h
Please go through the items and note down their TGI.

C/C(O)=C/c1nc2sc(C)c(C)c2c(=O)s1 | > 100 µM
O=c1[nH]cnc2c1nnn2C1C=C(CO)C(O)C1O (stereo not given) | > 100 µM
CSc1nc(NC2OC(CO)C(O)C(O)C2O)c(N)c(=O)n1C (stereo not given) | > 100 µM
N=C1SCCS1 | > 100 µM

**Q:** Recorded TGI of COC12c3ccccc3-c3ccccc3C1[C@@H](C(=O)O)[C@H]2C(=O)O (stereo not given in full) , please.
**A:** > 10 µM

###

Assignment: determine reported GI50 for the given molecules.
# System: NCI/ADR-RES ovarian
# Protocol Notes: NCI tumour cell line growth inhibition, 48 h

Example molecules with recorded GI50:
C/C=C(\C)C(=O)O[C@@H]1C=CC(=O)O[C@H]1COC(=O)[C@H](C)O | 14.6 µM
OCCC#Cc1ccccc1C#Cc1ccccc1 | 17.9 µM
O=C(/C=C/c1cccnc1)/C=C/c1cccnc1 | 4.08 µM
O=C1c2cccnc2-c2nc(-c3ccccc3)cc3c2c1nc1ccccc13 | 11.9 µM

With those in mind, consider the next molecule.
**Q:** Could you tell me which GI50 is on file for CCN(CC)c1ccc(/C=C/C2=[N+](C)c3ccccc3C2(C)C)cc1 ?
**A:** 13.9 µM

###

# Tested on: SF-539 CNS
# Protocol Notes: NCI tumour cell line growth inhibition, 48 h
Measurement Name: TGI

// worked examples, TGI included
CC(=O)N(CCc1ccccc1)C(C)(C#N)c1ccccc1 (stereo not drawn) | > 100 µM
CNS(=O)(=O)NN(C)S(=O)(=O)c1ccc(C)cc1 | > 100 µM

--- query ---
**Q:** Fill in the blank: the reported TGI of CSc1nc(NC2OC(CO)C(O)C(O)C2O)c(N)c(=O)n1C (stereo not drawn) is ____.
**A:** > 100 µM

###

I'd appreciate it if you could supply TGI values for the items below.
# Test system: K-562 leukemia
# Protocol Notes: NCI tumour cell line growth inhibition, 48 h

Recorded TGI, per entry:
COC(=O)/C=C(\S/C(=C(/c1ccccc1)n1cc(C(=O)OC)c(C(=O)OC)n1)c1ccccc1)C(=O)OC | 31.8 µM
Nc1nccc(C#Cc2cncnc2Nc2ccc(OCc3cccc(F)c3)c(Cl)c2)n1 | > 25 µM
OCC1OC(NC(=S)NCSCCC(F)(F)C(F)(F)C(F)(F)C(F)(F)C(F)(F)C(F)(F)F)C(O)C(O)C1O (stereo unspecified) | 56.4 µM
COC1C2c3ccccc3C(C#N)(Cc3ccc4c(c32)OCO4)N1C(=O)c1ccccc1 (stereo unspecified) | > 100 µM
CC1C2CC(CC2=O)C1(C)C (stereo unspecified) | > 100 µM

**Q:** Notebook: pull reported TGI for K-562 leukemia, entry COC(=O)[C@@H](COC(=O)/C=C/c1ccc(OC(C)=O)c(OC(C)=O)c1)NC(=O)/C=C/c1ccc(OC(C)=O)c(OC(C)=O)c1
**A:** > 100 µM

###

# Test system: DMS 114 small cell lung
# Protocol Notes: NCI tumour cell line growth inhibition, 48 h
Measurement Name: TGI (µM)
Answers are plain numbers, in µM.

Report TGI for every entry below.
1. COc1cc(-c2[nH]ncc2CCCC(=O)Nc2ccccc2[N+](=O)[O-])ccc1O
2. Cc1ccc(S(=O)(=O)OC(C=O)C(O)C(O)COC(c2ccccc2)(c2ccccc2)c2ccccc2)cc1 (stereo not given)

**A:**
1. 93.2
2. 33.8

###

Field: TGI. Provide a value for each of the compounds that follow.
# Test system: BT-549 breast
# Protocol Notes: NCI tumour cell line growth inhibition, 48 h
Answers are plain numbers, in µM.

As a guide, the following entries are already answered.
CCOC(=O)c1c(C)n(-c2ccc(C)cc2)c2c1cc(O)c1[nH]c3c(c12)CCCC3 | 26.2
O=C(CCl)Nc1ccc(-c2nc3ccccc3s2)cc1 | 2.95
O=C1c2cccnc2-c2nc(-c3ccccc3)cc3c2c1nc1ccccc13 | 21.3

**Q:** Any idea what TGI was measured for CCC1c2[nH]c3ccccc3c2C[C@H]2C(=O)NC(Cc3ccccc3)C(=O)N12 (stereo partly drawn) ?
**A:** 62.4

###

# Test system: HCC-2998 colon
# Protocol Notes: NCI tumour cell line growth inhibition, 48 h
Measurement Name: TGI

Guide cases for TGI, answers given:
COc1ccc([N+](=O)[O-])cc1[I+]c1cc([N+](=O)[O-])ccc1OC | > 100 µM
Cc1cc(N(CCC#N)CCC#N)ccc1N=Nc1ccc([N+](=O)[O-])cc1 | > 100 µM

**Q:** Look at this molecule and give its reported TGI. Nc1cc2c3c(cccc3c1)C(=O)N(CCN1CCN(CCN3C(=O)c4cccc5cc(N)cc(c45)C3=O)CC1)C2=O
**A:** > 100 µM

###

# Test system: SNB-75 CNS
# Protocol Notes: NCI tumour cell line growth inhibition, 48 h; in the data active = GI50 below about 0.43 µM; inactive = the rest
// classify into active, inactive

**Q:** Could you check what this test reported for CCN(CC)c1ccc(/C=C/C2=[N+](C)c3ccccc3C2(C)C)cc1 ?
**A:** active

**Q:** Tell me the assay call for CC/C(=C(/CC)c1ccc(OP(=O)([O-])[O-])cc1)c1ccc(OP(=O)([O-])[O-])cc1.N.N.N.N.[Pt+4].[Pt+4] please.
**A:** inactive

**Q:** Hi, sorry to bother you, what did the test record for c1ccc(COc2ccc(Nc3ncnc4ccc(-c5ccco5)cc34)cc2)cc1 ?
**A:** inactive

**Q:** Hi team, can someone confirm the assay call for N=C(N)c1ccc(-c2ccc(-c3ccccc3)o2)cc1 ?
**A:** inactive

###

# Tested on: HOP-62 NSCLC
# Protocol Notes: NCI tumour cell line growth inhibition, 48 h
I'd appreciate it if you could supply TGI values for the items below.

COC12c3ccccc3-c3ccccc3C1[C@@H](C(=O)O)[C@H]2C(=O)O (stereo partly drawn) | > 10 µM

Below are 2 compounds. Give each one its TGI.
1. Brc1ccc(C2(N3CCCCC3)CCCCC2)s1
2. Cc1ccc2c(c1)/C(=N\N=C/c1cn(C(C)C)c3ccccc13)C(=O)N2

**A:**
1: > 100 µM; 2: > 100 µM

###

# Tested on: SK-MEL-2 melanoma
# Protocol Notes: NCI tumour cell line growth inhibition, 48 h
Measurement Name: TGI (µM)
One number for each entry, in µM.

These recorded examples may help you get a feel for the data.
COc1cccc2c(=O)c3c(O)c4cc(N(C)C)ccc4c(OC(C)=O)c3oc12 | 46.9
Cc1nc(N=C(N)N)nc2ccc3ccccc3c12 | 3.37

// each compound listed below needs its TGI
1. CCCCCNC(=O)C1C(=O)N(CCCCC)C(=O)/C1=N\N (stereo not given)
2. CCCCC[C@H]1CC=CC(=O)O1

**A:**
86.2
19.1

###

# System: SK-MEL-5 melanoma
# Protocol Notes: NCI tumour cell line growth inhibition, 48 h
// thresholds for TGI classes: bottom (below 7 µM), middle (7 µM to below 30 µM), top (30 µM or more)

Past entries and their recorded results:
CCC1c2[nH]c3ccccc3c2C[C@H]2C(=O)NC(Cc3ccccc3)C(=O)N12 (some centres not stated) | top
NC(=NCc1ccccc1)N/N=C\c1ccnc2ccccc12 | middle

**Q:** Band assignment needed for CCN(CC)c1ccc(/C=C/C2=[N+](C)c3ccccc3C2(C)C)cc1 please.
**A:** bottom

**Q:** # classify by TGI band: O=C(Nc1ccc(Cl)cc1)C(=O)C1=C(O)c2ccccc2OC1
**A:** top

**Q:** Which class is correct for the following molecule? COc1ccc(-n2c(-c3ccccc3)cc(-c3cccs3)c2-c2cccs2)cc1
**A:** top

**Q:** Assign a category based on measured TGI for O=C(O)c1ccccc1/C=C1\Cc2ccc3c(c2C1=O)CCCC3 and give only the class name.
**A:** top

###

# Test system: SN12C renal
# Protocol Notes: NCI tumour cell line growth inhibition, 48 h
Measurement Name: TGI

CC(=O)C(CN1CCOCC1)C(c1ccccc1)c1c(O)c2ccccc2oc1=O (configuration not stated) | > 100 µM
Cc1cc2c(cc1-c1cc3c(cc1C)C(C(C)C)=C(O)C(=O)/C3=C\Nc1cccc3c(N)cccc13)/C(=C/Nc1cccc3c(N)cccc13)C(=O)C(O)=C2C(C)C | > 100 µM
Nc1cc2c3c(cccc3c1)C(=O)N(CCN1CCN(CCN3C(=O)c4cccc5cc(N)cc(c45)C3=O)CC1)C2=O | > 100 µM

Okay, here is my list. What is TGI for each of these?
1. Cc1ccc(C)c(NC(=O)CCC(=O)CC(=O)C(C)(C)C)c1
2. Cc1ccc(NC(=O)c2cc(S(=O)(=O)N3CCNNC3=O)c(S)cc2Cl)cc1
3. O=C(CC(C(=O)c1ccsc1)c1cccs1)c1ccsc1 (configuration not stated)
4. CCOC(=O)CC(=O)Nc1c(C(=O)OCC)sc2nc(SC)nc(Nc3ccc(OC)c(OC)c3)c12

**A:**
1: > 100 µM; 2: > 100 µM; 3: > 100 µM; 4: > 100 µM

Each of the following entries comes with a recorded value; kindly state TGI for each.
1. Nc1nccc(C#Cc2cncnc2Nc2ccc(OCc3cccc(F)c3)c(Cl)c2)n1
2. COC(=O)Oc1nn(C(=O)OC)c(=O)c2ccccc12 (tested in a mixture with another compound)
3. COc1cc(C2c3cc4c(cc3[C@@H](OCCN)[C@H]3COC(=O)C23)OCO4)cc(OC)c1O (some centres not stated)
4. COC(=O)/C=C(\S/C(=C(/c1ccccc1)n1cc(C(=O)OC)c(C(=O)OC)n1)c1ccccc1)C(=O)OC
5. CC(C)c1cc(C(C)C)c(P2(=O)CC3C(Cl)(Cl)C3(C)C2)c(C(C)C)c1 (configuration not stated)
6. N/C(=N\N=C=C1C(=O)Nc2ccc(F)cc21)NO

**A:**
9.98 µM
> 100 µM
0.562 µM
40.9 µM
29.3 µM
> 100 µM
